From: patent US12441754B2

- SYSTEM NAME: Galectin-3 (Homo sapiens, UniProt P17931)
- Sequence (P17931 whole entry): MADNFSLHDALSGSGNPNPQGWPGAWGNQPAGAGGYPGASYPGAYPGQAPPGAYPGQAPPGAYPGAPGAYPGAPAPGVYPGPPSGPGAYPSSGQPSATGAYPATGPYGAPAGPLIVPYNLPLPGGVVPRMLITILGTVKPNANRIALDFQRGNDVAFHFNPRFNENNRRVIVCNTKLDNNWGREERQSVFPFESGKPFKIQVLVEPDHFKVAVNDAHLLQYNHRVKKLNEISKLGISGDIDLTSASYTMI
- PROTOCOL NOTES: fluorescence anisotropy assay, compound as inhibitor of galectin / fluorescein tagged saccharide probe interaction
TEST READOUT: Kd (nM)
Answers are plain numbers, in nM.

Answered examples (3):
{"MOLECULE": "C#Cc1cncc(S[C@H]2O[C@H](CO)[C@H](O)[C@H](n3cc(-c4csc(N)n4)nn3)[C@H]2OC)c1", "UNIT INFO": "nM", "Kd": 6600}
{"MOLECULE": "Cc1cnc(C#N)c(S[C@H]2O[C@H](CO)[C@H](O)[C@H](n3cc(-c4nc(Cl)cs4)nn3)[C@H]2O)c1", "UNIT INFO": "nM", "Kd": 860}
{"MOLECULE": "CO[C@@H]1[C@@H](n2cc(-c3csc(N)n3)nn2)[C@@H](O)[C@@H](CO)O[C@@H]1Sc1cc(Br)ccc1C#N", "UNIT INFO": "nM", "Kd": 2200}

Give me Kd for each of these molecules, listed below.
1. CO[C@@H]1[C@@H](n2cc(-c3nc(Cl)cs3)nn2)[C@@H](O)[C@@H](CO)O[C@@H]1Sc1cnc(C#N)c(Cl)c1
2. CCOC1C(n2cc(-c3csc(N)n3)nn2)[C@@H](O)C(CO)O[C@@H]1Sc1ccc(C#N)c(Cl)c1 (some centres unmarked)

[370, 7700]

Give me Kd for each of these molecules, listed below.
1. CO[C@@H]1[C@@H](n2cc(-c3nccs3)nn2)[C@@H](O)[C@@H](CO)O[C@@H]1Sc1cc(Cl)ccc1F
2. CO[C@@H]1[C@@H](n2cc(-c3csc(O)n3)nn2)[C@@H](O)[C@@H](CO)O[C@@H]1Sc1cc(Cl)c(F)c(Cl)c1

1: 4400; 2: 2600
